# assay.protocol: soluble on expression in E. coli; label from the status in PepcDB or PDB records

biopolymer.sequence	soluble on expression in E. coli
TDSTGIDLHEFLVNTLKKNPRDRMMLLKLEQEILEFINDNNNQFKKFPQMTSYHRMLLHRVAAYFGMDHNVDQTGKAVIINKTSNTRIPEQRFSEHIKDEKNTEFQQRFIL	soluble
MRTRNMQDFEGPLPDLLESALTWVKQNAPTQNVYDSSGHMRKESVYPLPAVRELIANALVHRDLSPNSDGKWVEIRLCDDRLVISNPGGLRGVSVKQLESATLSKNAVNPRLYDIAKRVRTEGAGIQEVLRQTCQALLAKPQLIDTGVQFTAILYGASVFSEAELEWLRSIGGDGLTAVEKHLLVGLRKGESWHLSRILNEFSPITVAEAEKLMHGLKKRGFIESDNKTFTLGAHSENQAPRVEKEETTLAKITKNAPTIAHALELKPEQSFEELLRTTGLSQGQLRFALDKLQAVGLVVREGGWGVHGTTYHWSAQT	not soluble
MAHHHHHHMSRLKHVEWDEKNLEANAEYQRQHPVTIHITEPKTPYSYADGDDLEAEEEGLLKWDPAVNAKVKEIKEQIAGDFSDRPVAPIAKSGRPMLAEGTSTGELAQQQHQKEFRKMRKAVYADEGAMFKRALSHECKDEDDE	not soluble
MTLTDISLAQAFISIPQDVIALDLSNNLLGSKSCVDLLVNIADCIPAGVTSLDLSSNGLRLTQVSLVTPKHVTSLNLCFNPLHEISIDGLEWLKDSLAHIQIIYLSYDMVNNMSREQRQAFRAVIPNIQTIILVDKNGKEIGPSHTAKIANLISELGGGNPEVPSLEHHHHHH	not soluble
MGSSHHHHHHSSGLGPGGSHMASMSDSEVNQEAKPEVKPEVKPETHINLKVSDGSSEIFFKIKKTTPLRRLMEAFAKRQGKEMDSLRFLYDGIRIQADQTPEDLDMEDNDIIEAHREQIGGSLGRACKYENPARWSEQEQAIKGVYSSWVTDNILAMARPSSELLEKYHIIDQFLSHGIKTIINLQRPGEHASCGNPLEQESGFTYLPEAFMEAGIYFYNFGWKDYGVASLTTILDMVKVMTFALQEGKVAIHCHAGLGRTGVLIACYLVFATRMTADQAIIFVRAKRPNSIQTRGQLLCVREFTQFLTPLRNIFSEGHHHHHH	soluble
MNPIVKAPTLNDLPAPPPGKTGWPWTEQNEALPEKMPDGSDWPKISIVTPSYNYGQFIEETIRSVLLQGYPNLEYIVVDGGSTDNTVTIIRKYEKYLKYWASEPDHGQTDAINKGYRYCSGDVFAWLNADDLYYDQSTLLKVINFYQKGYDLIVGECLNINADGTHFNQAITSTEKSDPTYFKKYLRYWSSGFLPQPAIFVKKEMADQCFPLSIELYYAMDFQFFLRVLNQEPKSVWIQEKLTRLRWHEDSKTMGTISRIDFHAIVPEPEVHKVALAEAENLPTWLEKIFFRIQAFDYLSLQPYINSLDNFHWLQITKTIVKRPTLAVWPLFWKIFFRSLLGEQIYKLLKRTIRTNLEHHHHHH	not soluble
MDYNKTAKDILKLLGGEKNVMSAAHCATRLRLVLKNEKEARTKEIEKLDGVKGVFSSSGQYQIIIGQGSVNKVYKAFVEGTGISESSLSDTKKAAMKNM	not soluble

###

# assay.protocol: soluble on expression in E. coli; label from the status in PepcDB or PDB records

biopolymer.sequence	soluble on expression in E. coli
MKKIIAILLLVIGSIGIGKDLDQYESKRVFDKIIEVALTGDYEKYKNDKEMTNALEELVKASEYLDVHRIFSDGNKYIVLDVEEQGNRSILTVKAVYKIYRDISEEKYRQIMEREVLELMKYDMEEIDEKTYKKNVYNIITDIAGNDFEIKEEVIKMNMIKKEKWDMEDNSDLIQRLYPAIFYMMESLNKRYFKTSEEGNI	not soluble
MIQLEKLTKHFGTKRVVHDASAQFDKGQVTAIIGPNGAGKSTLLSMASRLVNRDAGKVWIEQRELVEWNTKALAQKLAVLRQSNVLNMRFTVRELTAFGRFPYSQGKLTTQDEQIINQAIEYLDLETIQYQYLDELSGGQRQLAFIAMVMAQDTDYVFLDEPLNNLDIKHSLQIMSTLRRLAHELNKAVVVVIHDINFASCYADKIVALKKGEVVATGSVRDVIQSEVLSAIYDTPFNVIEMQGQRLCLYTLPT	not soluble

###

# assay.protocol: soluble on expression in E. coli; label from the status in PepcDB or PDB records

biopolymer.sequence	soluble on expression in E. coli
AHHHHHHGSKVVALLSSGIDSPVAIHLMASRGVEVYPLHFRQDEVKERKVRKVVKKLQEIHGEKVKDPHTVNAYEVQAPVFEKLKEIKKGKWTCVFCKYTMYIVAESYAKKVGASAIITGDSLGQVASQTLDNLLVISTATKLPVIRPLIGLDKEEIVKIAKEIGTFEISIEEEPPCPFVPKFPVVRAGLGEFQKILSQVKDKLPRGDL	soluble
MAGSPTCLTLIYILWQLTGSAASGPVKELVGSVGGAVTFPLKSKVKQVDSIVWTFNTTPLVTIQPEGGTIIVTQNRNRERVDFPDGGYSLKLSKLKKNDSGIYYVGIYSSSLQQPSTQEYVLHVYEHLSKPKVTMGLQSNKNGTCVTNLTCCMEHGEEDVIYTWKALGQAANESHNGSILPISWRWGESDMTFICVARNPVSRNFSSPILARKLCEGAADDPDGSGLNDIFEAQKIEWHHHHHHHH	soluble
MTQWKNALSEGQLQQALELLIEAIKASPKDASLRSSFIELLCIDGDFERADEQLMQSIKLFPEYLPGASQLRHLVKAAQARKDFAQGAATAKVLGENEELTKSLVSFNLSMVSQDYEQVSELALQIEELRQEKGFLANDTSFSDVRDIDDRLGGYIELFSTAGNYFLVPIASINTLEIKSATSLLESVWRPVEFDIDGLGEGEGHMPMTYVDSESDAQKLGRETDWKQIADKEVYLGLGLKCWLVGEMALPISDLQNLQVIKELALEHHHHHH	soluble
MEKDDATASFSPSFSTYSGDRLVEIAERVCYKEKSDAEFEFSTAATSSSGDGGLVFPVFNKNLISGDVSPEKVIPLKDLFLRERNDQQPPQQTYSSSSDEEEEDDEFDSIPSEIYCPWTPARSTADMSPSGGCRKSKSTGSSSTSTWSTKRWRLRDFLKRSKSDGKQSLKFLNPTNRDDDDESSKSKKKVSVSVTVSAHEKFYLRNKAIKEEDKRKSYLPYKQDLVGLFSNIHRYGKTFPPF	not soluble
MNFSGKYQVQSQENFEPFMKAMGLPEDLIQKGKDIKGVSEIVHEGKKVKLTITYGSKVIHNEFTLGEECELETMTGEKVKAVVKMEGDNKMVTTFKGIKSVTEFNGDTITNTMTLGDIVYKRVSKRI	soluble
MKTDRLLADTKTIRYEETDLASLISAPYHFRCGIYLICTQGEAVVSTGVQKYIFNEQTELIFLTGGLLQVLETSGDLQVKMLMFPKEAFLNAMLPIDTPYFNYTHEHPCYHHTADERSQKTWRQINLWMDMAQMLFTEPMPQFRGQQEHNFLQSLLMWLFNTIPEKLAVSKQYSRTQLLCHRFMQLIREYSMHEHQVAFYAEKLCISSRYLHKITVRHLDGKKPKQLIDEQLVAEIKVLLNEPRLSVTEIAEQLHFPDQSYLTHFFKKNTGISPKEFRAIKNLG	not soluble
HMTPQDHEKAALIMQVLQLTADQIAMLPPEQRQSILILKEQIQKSTGAP	soluble

###

# assay.protocol: soluble on expression in E. coli; label from the status in PepcDB or PDB records

biopolymer.sequence	soluble on expression in E. coli
MVMSKYTQEQIKNLVEGNLDWNTVLKMLSMPKDHERFQMYLKVLQDKVDFDDKIVLPLGPHLFVVQDAQKKWVIKCSCGHAFCAPEENWKLHANIYVRDTAEKMEEVYPKLLASDTHWQVYREYICPDCGILLDVEAPTPWYPVIHDFEPDIEVFYKDWLGIQPPERR	not soluble
MVDPNEHKKAVKTQQQDDEQTFEAVARAWHTDNKKWSESHAERILKSLSDNIFPAIGGTHVANLKTRDLLTPIKSVERSGRLEVAKRLKQRVTAIMTYAVQNGLIDYNPAQDMAGAIMPGKVEHRLEHHHHHH	not soluble
MPNNLELKQLIASAQVLGLQNDSSLPAFDRQILRMADEEKRALSPTEIQHICQTSKVDAQLIEQLQSQANHLVQQAREFLVKEQPHLVQSGGALFPSERAEACWRDCWQFFRVIVYAIACKRPLFTDAEGMGALRALYAHVGVPIEGLNIALKQLKVLSRQEISGAIEAPLLSESFGHLLEELNKTGVKS	not soluble
MKFLILSVSAGGGHIHAAFALKKYIAKYLEGSQVKMLDTIKYLNPFLDKVLIGGYLKTLKVSPALFGKLYNFTEKDDNLASLSNKINEFMAYKLIPIIEDFNPDVIICTHPFPTEMVSILKSKESLKTPMLCILTDYAPHSFWIRPQVNSYVVSNSDMVDEMVRRGVNRENIYDLGIPVDPDFIRNFDKIETLNELNLSLNKKTILIMGGSLGIGKIEDIYEALSKSRANIQIIIITGNNKKLYSKLLELAEDSYVETRILGYTRDVNRYMQASDLLLTKPGGLTITEALICRVPLAVFSPIPGQEEKNEDFLLKHNLAISIRDSENCLGIIESLISNPELLQAMKDNCNKFSKPSSGKDICNLLINLINKNQKIDVNNADYRN	not soluble
MSLKILYISQEIFPYLPETDISVVSRKLPQTIQERGNEVRIFMPRYGIINERRNQLHEVIRLSGINMIINDNDHPLIIKVASIQSARMQVYFIDNDDFFKRKTMYDIKPKQENDNDERAIFFVRGALEAIKKLRWIPDVIHCHGWFTALAALYLKKMYADDPCLQKAKVVYSVYDDAGQGVIPETLFGKLGFDKITPDDLSVMEQSSDYLALNRLAIRYADGVIQGSETIAPELTDYISSLEGKAFLPYQGKEDYEEAFDNFYSDLLTANEGHHHHHH	soluble
MEDERIKLLFKEKALEILMTIYYESLGGNDVYIQYIASKVNSPHSYVWLIIKKFEEAKMVECELEGRTKIIRLTDKGQKIAQQIKSIIDIMENDT	soluble
MSPNCETPTSSLSTSLRFVPSLACIAEEEPKVIGIRKITVPGSSKPFQVQIPLYDLNIYAPEPPKQPLPDSYQRLLAEMDQYIGGHQNSEMYKEMAKNLRHKVAVEQAENNRLSKSNFTNRDWYWYAEQTRAFVDEPVINSTSKTQESNISECLEETSSSAKSTVMKDEDLFDLSADF	not soluble
MNIQALINDKVSQALEAAGAPAGSPAAVRQSAKPQFGDYQANGVMGVAKKLGTNPREFAQKVLDVLDLDGIASKTEIAGPGFINIFLSEEFLAKQADAALADSR	not soluble

Measured values drawn from the DeepSol protein solubility set for this set.
